# Tested on: biotinyl-Trp-oxazolone
# Experiment: self-aminoacylation, catalytic enhancement (BWO) (fold over background); higher = more active; k-Seq, kA / k0A0; sequences stand for … in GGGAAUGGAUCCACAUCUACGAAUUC…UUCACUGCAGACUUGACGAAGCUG
This sample holds only a part of the variants without activity.
Readout label: self-aminoacylation
Kindly provide the number alone.

Inquiry: Given AUUCACGUAGGUCAUCGGGGG [Fam2.2 aminoacylation ribozyme variant] , state its recorded self-aminoacylation.
Reply text: 2.53

Inquiry: Given ACUCACCCAGGUCAUCGGGUG [Fam2.2 aminoacylation ribozyme variant] , state its recorded self-aminoacylation.
Reply text: 4.81

Inquiry: Given AACGUUGCUAAUAGUCGCAAG [Fam3.1 aminoacylation ribozyme variant] , state its recorded self-aminoacylation.
Reply text: 1.97

Inquiry: Given AGGAUUGCUAAUAGUCGCAAG [Fam3.1 aminoacylation ribozyme variant] , state its recorded self-aminoacylation.
Reply text: 2.52

Inquiry: Given AAGUCGGCUAAUAGUCGCAAG [Fam3.1 aminoacylation ribozyme variant] , state its recorded self-aminoacylation.
Reply text: 4.2

Others:
Inquiry: Given AUUGACCCAGGUCAUCGGGUG [Fam2.2 aminoacylation ribozyme variant] , state its recorded self-aminoacylation.
Reply text: 5.64

Inquiry: Given AUUCACGUAGGACAUCGGGUG [Fam2.2 aminoacylation ribozyme variant] , state its recorded self-aminoacylation.
Reply text: 5.55

Inquiry: Given AUUCACCAAGGUAAUCGGGUG [Fam2.2 aminoacylation ribozyme variant] , state its recorded self-aminoacylation.
Reply text: 4.8

Inquiry: Given AUUACCCUGUUGAUCGAGUGA [Fam2.1 aminoacylation ribozyme variant] , state its recorded self-aminoacylation.
Reply text: 16.8

* * *

# Test system: biotinyl-Ile-oxazolone
# Experiment: self-aminoacylation, catalytic enhancement (BIO) (fold over background); higher = more active; k-Seq, kA / k0A0; sequences stand for … in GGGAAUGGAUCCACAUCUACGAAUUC…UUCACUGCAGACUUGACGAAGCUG
This sample holds only a part of the variants without activity.
self-aminoacylation values for the sequences below.
Kindly provide the number alone.

Study these solved cases before continuing.
Inquiry: Given CUACUUUACACAAUCGGUCUG [Fam1A.1 aminoacylation ribozyme variant] , state its recorded self-aminoacylation.
Reply text: 0.87

Inquiry: Given CCACAGUUCAAGAAAUCGGUC [Fam1B.1 aminoacylation ribozyme variant] , state its recorded self-aminoacylation.
Reply text: 1.06

Inquiry: Given AUUAUCCUGGUCAUCGAGUGA [Fam2.1 aminoacylation ribozyme variant] , state its recorded self-aminoacylation.
Reply text: 6.23

Inquiry: Given AGGUUUGCUGAUAGUCGCAAG [Fam3.1 aminoacylation ribozyme variant] , state its recorded self-aminoacylation.
Reply text: 1.49

Inquiry: Given AAGUUUGCCAAUAGUUGCAAG [Fam3.1 aminoacylation ribozyme variant] , state its recorded self-aminoacylation.
Reply text: 0.948

Inquiry: Given AAUUUUUCUAAUAGUCGCAAG [Fam3.1 aminoacylation ribozyme variant] , state its recorded self-aminoacylation.
Reply text: 1.88

Inquiry: Given CCUCCCUUCAAGCAAUCGGUC [Fam1B.1 aminoacylation ribozyme variant] , state its recorded self-aminoacylation.
Reply text: 1.2

Inquiry: Given AUUCACCUAGGCCGUCGGGUG [Fam2.2 aminoacylation ribozyme variant] , state its recorded self-aminoacylation.
Reply text: 1.87

Proceeding to the next sequence to report its self-aminoacylation.
Inquiry: Given AUUCACCUAGGUAAGCGGGUG [Fam2.2 aminoacylation ribozyme variant] , state its recorded self-aminoacylation.
Reply text: 1.9

Data credit: the supplement of paper PMC9233669
